B1: ZC3H15 (parent)
chain: RKADFKAGKALVISGREVFEFRPE

variants of: B1; assay: protein stability index of a GFP-peptide fusion (GPS, HEK-293T) (PSI 1-6); higher = more stable; conditions: c terminus: a fixed tail appended;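 further: lentivirally expressed fusions sorted by FACS into six bins by GFP to DsRed ratio, PSI derived from sequencing read proportions per bin multiplied by bin number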

query-sequence: RKADFKAGKALVISGREVFRFRPE [E20R]
protein stability index: 3.14
//
query-sequence: RKADFKAGKALVISGREVFETRPE [F21T]
protein stability index: 3.73
//
query-sequence: RKADFKAGKALVISGREVFGFRPE [E20G]
protein stability index: 3.1
//
query-sequence: RKADFKAGKALVISGRHVFEFRPE [E17H]
protein stability index: 1.9
//
query-sequence: RKADFKAGKALVNSGREVFEFRPE [I13N]
protein stability index: 3.95
//
query-sequence: RKADFKAGKALVISGREVFSFRPE [E20S]
protein stability index: 2.1
//
query-sequence: RKADFKAGKALVISGREVFEFNPE [R22N]
protein stability index: 3.07
//
query-sequence: RKADFKAGKAYVISGREVFEFRPE [L11Y]
protein stability index: 2.29
//
query-sequence: RKADFKAKKALVISGREVFEFRPE [G8K]
protein stability index: 3.24
//
query-sequence: RKADFKAGKAQVISGREVFEFRPE [L11Q]
protein stability index: 3.66
//
query-sequence: RKADFKAGKALVISGREVFWFRPE [E20W]
protein stability index: 1.61
//
query-sequence: RKADFKAGKALVIAGREVFEFRPE [S14A]
protein stability index: 2.86
//
query-sequence: RKPDFKAGKALVISGREVFEFRPE [A3P]
protein stability index: 2.95
//
query-sequence: PKADFKAGKALVISGREVFEFRPE [R1P]
protein stability index: 3.19
//
query-sequence: RKADCKAGKALVISGREVFEFRPE [F5C]
protein stability index: 3.55
//
query-sequence: RKADFKAGKSLVISGREVFEFRPE [A10S]
protein stability index: 2.86
//
query-sequence: RKADFAAGKALVISGREVFEFRPE [K6A]
protein stability index: 2.71
//
query-sequence: RKADFKAGKALVISGREVFEFIPE [R22I]
protein stability index: 2.81
